Assay: Cmax in C57BL/6 mouse at 0.3 mg/kg, ip
Assay type: ADME, organism-based
Set-up: dose 0.3 mg/kg, route ip
Conditions: in vivo
MEASUREMENT_NAME: Cmax (µg/mL)
API: value field is a number in µg/mL; no unit string.

Which value of Cmax has been reported for N[C@@H](CCB(O)O)C(=O)O in the records?
15.3

* * *

Experiment: Inhibition of bovine GGT1 assessed as GSH hydrolysis by measuring inhibition constant
Design: species or system Bos taurus
Readings of pKi for the listed compounds
In simple prose, pKi is minus the logarithm base ten of a concentration in moles per litre.

N[C@H](CCB(O)O)C(=O)O    7.11

Turning to the following compound.
Which pKi is reported for this compound? N[C@@H](CCB(O)O)C(=O)O
7.60

* * *

Test: Clearance in C57BL/6 mouse at 0.3 mg/kg, ip
Assay type: ADME, organism-based
Details: in vivo
MEASUREMENT_NAME: CL/F (mL/min)
Your answer should be a plain number; it is taken to be in mL/min.

Give the measured CL/F of N[C@@H](CCB(O)O)C(=O)O .
0.0612

* * *

Experiment: Inhibition of bovine GGT1 transpeptidation assessed as inhibition constant
Set-up: species or system Bos taurus
Some compounds, each annotated with its measured pKi.
Kindly note that pKi refers to -log10 of the concentration in mol/L and answer with the value alone.

Need pKi, item N[C@@H](CCB(O)O)C(=O)O
8.30

Need pKi, item N[C@H](CCB(O)O)C(=O)O
7.35

* * *

Target: Glutathione hydrolase 1 proenzyme (Homo sapiens)
Sequence (P19440 1-380 limits assumed): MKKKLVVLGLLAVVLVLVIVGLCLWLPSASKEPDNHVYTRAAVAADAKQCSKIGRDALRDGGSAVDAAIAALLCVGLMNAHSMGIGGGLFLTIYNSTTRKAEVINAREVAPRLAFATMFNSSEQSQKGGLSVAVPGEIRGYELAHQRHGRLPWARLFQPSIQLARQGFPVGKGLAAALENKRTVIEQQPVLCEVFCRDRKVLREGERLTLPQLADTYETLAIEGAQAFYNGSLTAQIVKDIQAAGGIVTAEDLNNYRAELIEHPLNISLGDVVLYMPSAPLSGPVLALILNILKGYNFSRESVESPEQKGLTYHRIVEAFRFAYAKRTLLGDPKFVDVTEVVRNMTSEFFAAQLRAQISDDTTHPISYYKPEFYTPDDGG
Sequence (P19440 381-569 limits assumed): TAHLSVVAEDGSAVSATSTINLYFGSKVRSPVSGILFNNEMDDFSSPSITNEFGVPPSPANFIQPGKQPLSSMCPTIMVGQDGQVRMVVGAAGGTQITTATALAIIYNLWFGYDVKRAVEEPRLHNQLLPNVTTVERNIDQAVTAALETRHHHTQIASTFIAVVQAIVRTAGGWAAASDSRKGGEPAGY
Assay: Inhibition of GGT1 (unknown origin) assessed as GSH hydrolysis by measuring inhibition constant
MEASUREMENT_NAME: Ki (µM)
The reply should contain only the number, in µM.

CC(N)(CCB(O)O)C(=O)O (racemic)    2.8
CCCC(N)(CCB(O)O)C(=O)O (racemic)    703

Shift focus to the following entry.
Report Ki for CCC(N)(CCB(O)O)C(=O)O (racemic) please.
874

* * *

Test: MRT in C57BL/6 mouse at 0.3 mg/kg, ip
Format: ADME, organism-based
Settings: in vivo
MEASUREMENT_NAME: MRT (h)
Numeric only. Scale: h

What value of MRT has been reported for the following compound? N[C@@H](CCB(O)O)C(=O)O
5.42
